System: Fibroblast
Assay: Multiplex assay against human fibroblast
Assay type: toxicity, cell-based
Conditions: 48 h, 10 µM, compound concentration 10 uM, replicate 1
Note to self: Population Mitotic Cells (%) under 30% means label 1, ties and anything higher get label 0.

[
  {
    "molecule": "CN1CCN(C(=O)C(C)(C)c2ccc(C(=O)Nc3cn4cc(-c5ccncc5)ccc4n3)cc2)CC1",
    "label.class": "label 0"
  },
  {
    "molecule": "Cc1cn(-c2cc(NC(=O)c3ccc(C)c(Nc4nccc(-c5cccnc5)n4)c3)cc(C(F)(F)F)c2)cn1",
    "label.class": "label 0"
  },
  {
    "molecule": "O=C(Nc1ccc(-n2nc(-c3cccnc3)cc2C(F)(F)F)cn1)c1ccc(-c2ccccc2)c(F)c1",
    "label.class": "label 1"
  },
  {
    "molecule": "O=C(Nc1ccc(-c2ccnc(Nc3ccc(N4CCOCC4)cc3)n2)cc1)[C@@H]1CCCN1",
    "label.class": "label 1"
  },
  {
    "molecule": "CCOc1cc2ncc(C#N)c(Nc3ccc(OCc4ccccn4)c(Cl)c3)c2cc1NC(=O)/C=C/CN(C)C",
    "label.class": "label 0"
  },
  {
    "molecule": "O=C1NC(=O)C(c2cnc3ccccn23)=C1c1cn2c3c(cc(F)cc13)CN(C(=O)N1CCCCC1)CC2",
    "label.class": "label 1"
  },
  {
    "molecule": "CCOc1cc(C(=O)N2CCC(N3CCN(C)CC3)CC2)ccc1Nc1ncc2c(n1)N(C1CCCC1)c1ccccc1C(=O)N2C",
    "label.class": "label 1"
  },
  {
    "molecule": "CN1C2CCC1CC(OC(c1ccc(F)cc1)c1ccc(F)cc1)C2.Cl (configuration not stated)",
    "label.class": "label 1"
  },
  {
    "molecule": "S=C(NCCCc1c[nH]cn1)NCCCN(Cc1ccc(Cl)c(Cl)c1)c1ccc(Br)cn1",
    "label.class": "label 0"
  },
  {
    "molecule": "COc1cc(N2CCN(C)CC2)ccc1Nc1ncc2c(n1)N(C)c1ccccc1C(=O)N2C",
    "label.class": "label 1"
  },
  {
    "molecule": "CCN1CCN(Cc2ccc(Nc3ncc(F)c(-c4cc(F)c5nc(C)n(C(C)C)c5c4)n3)nc2)CC1.CS(=O)(=O)O",
    "label.class": "label 1"
  },
  {
    "molecule": "CCCn1c(=O)c2[nH]c(-c3cnn(Cc4cccc(C(F)(F)F)c4)c3)nc2n(CC)c1=O",
    "label.class": "label 1"
  },
  {
    "molecule": "Cl.Oc1ccc2c3c1O[C@H]1c4[nH]c5c(c4C[C@@]4(O)[C@@H](C2)N(CC2CC2)CC[C@]314)C[C@@]1(O)[C@H]2Cc3ccc(O)c4c3[C@@]1(CCN2CC1CC1)[C@H]5O4",
    "label.class": "label 0"
  },
  {
    "molecule": "CN1CCC(=C2c3ccccc3CC(=O)c3sccc32)CC1.O=C(O)/C=C/C(=O)O [KETOTIFEN FUMARATE]",
    "label.class": "label 1"
  },
  {
    "molecule": "O=C1N/C(=N/c2ccccc2F)S/C1=C\\c1ccc(C(=O)O)cc1",
    "label.class": "label 0"
  },
  {
    "molecule": "Cc1ccc(C(=O)Nc2cccc(C(F)(F)F)c2)cc1Nc1nc(-c2cccnc2)nc2c1cnn2C",
    "label.class": "label 0"
  }
]
